Target: HCV NS5B RdRp genotype 1b (Hepatitis C virus genotype 1b, UniProt Q9WMX2)
Construct: The protein was expressed with an 18 amino acid C-terminal truncation to enhance the solubility; made in house; host or cells: E. coli BL21 (DE3), pET21a
Sequence (Q9WMX2 2420-2992): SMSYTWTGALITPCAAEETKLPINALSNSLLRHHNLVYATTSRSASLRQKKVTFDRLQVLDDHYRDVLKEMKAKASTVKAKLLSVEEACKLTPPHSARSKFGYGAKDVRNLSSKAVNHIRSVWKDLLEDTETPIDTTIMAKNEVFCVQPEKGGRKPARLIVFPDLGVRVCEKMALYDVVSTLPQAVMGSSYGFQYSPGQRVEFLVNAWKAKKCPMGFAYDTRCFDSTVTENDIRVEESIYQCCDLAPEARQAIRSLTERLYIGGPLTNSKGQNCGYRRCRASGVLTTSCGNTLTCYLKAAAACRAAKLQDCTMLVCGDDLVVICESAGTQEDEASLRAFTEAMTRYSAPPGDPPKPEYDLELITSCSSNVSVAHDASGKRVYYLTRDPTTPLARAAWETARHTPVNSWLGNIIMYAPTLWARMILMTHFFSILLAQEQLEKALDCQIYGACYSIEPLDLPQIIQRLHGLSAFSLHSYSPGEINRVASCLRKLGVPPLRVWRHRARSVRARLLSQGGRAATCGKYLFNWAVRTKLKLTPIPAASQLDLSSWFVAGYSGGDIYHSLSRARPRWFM
Experiment: Modified HCV NS5B RdRp enzyme assay (with preincubation)
Assay type: biochemical
Conditions: modified method (with preincubation)
Could you please report measured IC50 for the items listed next?

Request: IC50, test system HCV NS5B RdRp genotype 1b (Hepatitis C virus genotype 1b, UniProt Q9WMX2), entry `Nc1nc2c(s1)CCCn1c-2c(C2CCCCC2)c2ccc(C(=O)NC3(C(=O)Nc4ccc(/C=C/C(=O)O)cc4)CCCC3)cc21`
Result: 0.02 to 1 µM

Request: IC50, test system HCV NS5B RdRp genotype 1b (Hepatitis C virus genotype 1b, UniProt Q9WMX2), entry `COC(=O)C1=C(C)c2ccccc2-c2c(C3CCCCC3)c3ccc(C(=O)OC)cc3n2C1`
Result: > 1 µM

Request: IC50, test system HCV NS5B RdRp genotype 1b (Hepatitis C virus genotype 1b, UniProt Q9WMX2), entry `COC(=O)c1ccc2c(C3CCCCC3)c3n(c2c1)C=C(C#N)Cc1ccccc1-3`
Result: > 1 µM

Request: IC50, test system HCV NS5B RdRp genotype 1b (Hepatitis C virus genotype 1b, UniProt Q9WMX2), entry O=C(c1ccc2c(C3CCCCC3)c3n(c2c1)CC(C(=O)N1CCOCC1)Cc1ccccc1-3)N1CCOCC1 (stereo not shown)
Result: > 1 µM
